- System Under Test: recombinant human GBA (beta-glucocerebrosidase) (Homo sapiens)
- Sequence (P04062 40-536): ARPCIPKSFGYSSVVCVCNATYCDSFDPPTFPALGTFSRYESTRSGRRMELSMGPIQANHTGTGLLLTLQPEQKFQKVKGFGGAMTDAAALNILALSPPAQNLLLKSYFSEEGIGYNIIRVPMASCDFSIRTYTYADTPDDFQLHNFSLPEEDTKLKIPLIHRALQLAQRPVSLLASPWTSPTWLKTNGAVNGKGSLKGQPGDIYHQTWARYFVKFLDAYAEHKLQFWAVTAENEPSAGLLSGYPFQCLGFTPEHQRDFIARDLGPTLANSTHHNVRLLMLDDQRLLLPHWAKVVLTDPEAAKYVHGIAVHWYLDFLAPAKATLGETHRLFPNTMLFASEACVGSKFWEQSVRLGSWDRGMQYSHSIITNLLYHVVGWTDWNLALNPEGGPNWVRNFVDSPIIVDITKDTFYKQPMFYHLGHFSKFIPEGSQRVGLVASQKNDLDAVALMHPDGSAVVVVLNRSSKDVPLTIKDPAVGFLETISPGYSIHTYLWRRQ
- Procedure Details: Beta-glucocerebrosidase (GBA, glucosylceramidase) assay (4-methylumbelliferyl-beta-D-pyranoside substrate, fluorescence)
As shown below, each of these compounds has a reported IC50 value.
Property: IC50 (µM)

compound="COc1cc(C#N)cc(NCCc2ccc(CCN3C[C@H](O)[C@@H](O)[C@H](O)[C@H]3CO)cc2)c1 [Compound 1133]" scale_unit=µM inequality_symbol== result_number=4.5
compound="CC(C)(C)c1cc(NCCCCCCN2C[C@H](O)[C@@H](O)[C@H](O)[C@H]2CO)cc(-c2ncccn2)c1 [Compound 1151]" scale_unit=µM inequality_symbol== result_number=0.299
compound="COc1cc(CC2CCOC2)cc(NCCCCCCN2C[C@H](O)[C@@H](O)[C@H](O)[C@H]2CO)c1 (stereo partly shown) [Compound 1141]" scale_unit=µM inequality_symbol== result_number=8.06
compound="[N-]=[N+]=Nc1ccc(NCCC23CC(CCN4C[C@H](O)[C@@H](O)[C@H](O)[C@H]4CO)(C2)C3)c([N+](=O)[O-])c1 [Compound 1103]" scale_unit=µM inequality_symbol== result_number=11.9
compound="[N-]=[N+]=Nc1ccc(NCCOCCN2C[C@H](O)[C@@H](O)[C@H](O)[C@H]2CO)c([N+](=O)[O-])c1 [Compound 1255]" scale_unit=µM inequality_symbol== result_number=3.08
compound="OC[C@@H]1[C@@H](O)[C@H](O)[C@@H](O)CN1Cc1cccc(CNc2ccc(C3=COCCO3)cc2)c1 [Compound 1066]" scale_unit=µM inequality_symbol=> result_number=100
compound="Cc1cc(NCc2ccc(CN3C[C@H](O)[C@@H](O)[C@H](O)[C@H]3CO)cc2)cc(N2CCOCC2)c1 [Compound 1048]" scale_unit=µM inequality_symbol=> result_number=100
